The measured values listed here are drawn from patent US12568972B2.

Please go through the items and note down their weed control effect, Chenopodiaceae (activity level).
Tested on: Chenopodiaceae
Protocol description: Post-emergence test, weed control effect
Type: in vivo
Condition context: Dose 3000 g/ha, after 3 weeks
Field format: numeric only.

Quick check: weed control effect, Chenopodiaceae (activity level) of CN(C)C(=O)Oc1cc(C(F)(F)F)nnc1-c1ccc(F)c(F)c1 ? 10

Quick check: weed control effect, Chenopodiaceae (activity level) of O=S(=O)(Oc1cc(C(F)(F)F)nnc1-c1ccc(F)cc1)c1ccc(F)cc1 ? 10

Quick check: weed control effect, Chenopodiaceae (activity level) of CC(C)=NOc1cc(C(F)(F)F)nnc1-c1ccc(F)c(F)c1 ? 10

Quick check: weed control effect, Chenopodiaceae (activity level) of O=C(Oc1cc(C(F)(F)F)nnc1-c1ccc(Cl)cc1)c1ccc2ccccc2n1 ? 10

Quick check: weed control effect, Chenopodiaceae (activity level) of O=C(Oc1cc(C(F)(F)F)nnc1-c1ccc(F)cc1)c1ccc2ccccc2c1 ? 10

Quick check: weed control effect, Chenopodiaceae (activity level) of O=S(=O)(Oc1cc(C(F)(F)F)nnc1-c1ccc(Cl)cc1)c1cccc(OC(F)F)c1 ? 10

Quick check: weed control effect, Chenopodiaceae (activity level) of O=C(CCCBr)Oc1cc(C(F)(F)F)nnc1-c1ccc(F)c(F)c1 ? 10

Quick check: weed control effect, Chenopodiaceae (activity level) of CCN(CC)C(=S)Oc1cc(C(F)(F)F)nnc1-c1ccc(F)cc1 ? 10

###

System: Chenopodiaceae
Protocol description: Post-emergence test, weed control effect
Format: in vivo
Condition context: Dose 3000 g/ha, after 3 weeks
Property label: weed control effect, Chenopodiaceae (activity level)
Field format: numeric only.

Quick check: weed control effect, Chenopodiaceae (activity level) of O=C(Oc1cc(C(F)(F)F)nnc1-c1ccc(C(F)(F)F)cc1)c1cccc2c1OCO2 ? 10

Quick check: weed control effect, Chenopodiaceae (activity level) of Cc1ccc(-c2nnc(C(F)(F)F)cc2OC(=O)c2ccccc2C)cc1 ? 10

Quick check: weed control effect, Chenopodiaceae (activity level) of CC/C(CC(C)CC)=N/Oc1cc(C(F)(F)F)nnc1-c1ccnn1C (centres unmarked) ? 10

Quick check: weed control effect, Chenopodiaceae (activity level) of O=C(Oc1cc(C(F)(F)F)nnc1-c1ccc(F)c(F)c1)c1cnccn1 ? 10

Quick check: weed control effect, Chenopodiaceae (activity level) of O=C(Oc1cc(C(F)(F)F)nnc1-c1ccc(F)cc1)Sc1ccccc1 ? 10

Quick check: weed control effect, Chenopodiaceae (activity level) of CCO/C=C/C(=O)Oc1cc(C(F)(F)F)nnc1-c1cccc(F)c1 ? 10

Quick check: weed control effect, Chenopodiaceae (activity level) of CCCCCCCOC(=O)Oc1cc(C(F)(F)F)nnc1-c1ccc(Cl)c(Cl)c1Cl ? 10

Quick check: weed control effect, Chenopodiaceae (activity level) of CCCCCC/C(C)=N\Oc1cc(C(F)(F)F)nnc1-c1ccc(Cl)cc1Cl ? 10

Quick check: weed control effect, Chenopodiaceae (activity level) of O=C(CC1CCCC1)Oc1cc(C(F)(F)F)nnc1-c1ccc(C(F)(F)F)cc1 ? 10

Quick check: weed control effect, Chenopodiaceae (activity level) of CN1CCN(C(=O)Oc2cc(C(F)(F)F)nnc2-c2ccc(F)cc2)CC1 ? 10

Quick check: weed control effect, Chenopodiaceae (activity level) of Cn1cccc1C(=O)Oc1cc(C(F)(F)F)nnc1-c1ccccc1 ? 10

Quick check: weed control effect, Chenopodiaceae (activity level) of O=S(=O)(Oc1cc(C(F)(F)F)nnc1-c1ccccc1)c1cc(Cl)c(Cl)cc1Cl ? 10

Quick check: weed control effect, Chenopodiaceae (activity level) of CCC(=O)Oc1cc(C(F)(F)F)nnc1-c1ccc(F)c(F)c1 ? 10

Quick check: weed control effect, Chenopodiaceae (activity level) of Cc1ccc(-c2nnc(C(F)(F)F)cc2OC(=O)OCC(C)(C)C)c([N+](=O)[O-])c1 ? 10

Quick check: weed control effect, Chenopodiaceae (activity level) of CCCCCCCCC(=O)Oc1cc(C(F)(F)F)nnc1-c1cccc(Br)c1 ? 10

Quick check: weed control effect, Chenopodiaceae (activity level) of CSCCC(=O)Oc1cc(C(F)(F)F)nnc1-c1ccc(F)c(F)c1 ? 10

Quick check: weed control effect, Chenopodiaceae (activity level) of CCCCC(=O)Oc1cc(C(F)(F)F)nnc1-c1ccc(Cl)c(Cl)c1 ? 10
